Where these numbers come from: paper PMC7105043

Catalogue of CC50 at 3 days values
assay: XTT cytotoxicity assay; type: cell-based, human; details: dog, MDCK cells

Below are worked cases with known answers.
• C[C@@H]1O[C@@H](OC[C@H]2O[C@@H](Oc3c(-c4ccc(O)c(O)c4)oc4cc(O)cc(O)c4c3=O)[C@H](O)[C@@H](O)[C@@H]2O)[C@H](O)[C@H](O)[C@H]1O [rutintrihydrate, rutin trihydrate] = > 100 µg/mL
• O=C(O)c1cc(O)c(O)c(O)c1 = 22.1 µg/mL

Incoming: If you can, please state the reported CC50 at 3 days value of `O=c1c(O)c(-c2ccc(O)cc2)oc2cc(O)cc(O)c12` .
Outgoing: > 100 µg/mL

Incoming: If you can, please state the reported CC50 at 3 days value of O=c1c(O)c(-c2ccc(O)c(O)c2)oc2cc(O)cc(O)c12 [quercetin hydrate] .
Outgoing: > 100 µg/mL
